Origin of measurements: patent US20210238260

# TARGET_SYSTEM: Factor X, P00742
# Sequence (P00742 whole entry, looked up): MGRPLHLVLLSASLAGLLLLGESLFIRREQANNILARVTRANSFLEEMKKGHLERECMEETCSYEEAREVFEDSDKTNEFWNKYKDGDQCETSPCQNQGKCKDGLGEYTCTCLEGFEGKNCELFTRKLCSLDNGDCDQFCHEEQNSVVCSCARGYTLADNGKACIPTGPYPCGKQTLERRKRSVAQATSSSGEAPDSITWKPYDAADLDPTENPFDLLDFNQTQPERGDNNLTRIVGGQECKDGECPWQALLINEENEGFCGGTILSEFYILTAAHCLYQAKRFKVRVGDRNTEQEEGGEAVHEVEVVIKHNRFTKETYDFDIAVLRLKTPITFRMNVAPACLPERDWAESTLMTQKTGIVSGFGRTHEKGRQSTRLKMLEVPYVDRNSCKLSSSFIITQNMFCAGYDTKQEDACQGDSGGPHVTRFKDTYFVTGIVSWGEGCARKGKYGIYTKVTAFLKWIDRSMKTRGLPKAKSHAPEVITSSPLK
METRIC: % of WT kcat/KM
The reply should read as a number followed by its unit.

If you can, please state the reported % of WT kcat/KM value of FIXa-A103N/N105S/K247N/N249S/R318Y/R338E/R403E/E410N (protein) chain 1: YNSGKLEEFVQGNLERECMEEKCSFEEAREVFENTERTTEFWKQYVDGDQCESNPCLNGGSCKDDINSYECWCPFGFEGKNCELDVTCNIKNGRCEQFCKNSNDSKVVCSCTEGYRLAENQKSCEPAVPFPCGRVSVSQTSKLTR chain 2: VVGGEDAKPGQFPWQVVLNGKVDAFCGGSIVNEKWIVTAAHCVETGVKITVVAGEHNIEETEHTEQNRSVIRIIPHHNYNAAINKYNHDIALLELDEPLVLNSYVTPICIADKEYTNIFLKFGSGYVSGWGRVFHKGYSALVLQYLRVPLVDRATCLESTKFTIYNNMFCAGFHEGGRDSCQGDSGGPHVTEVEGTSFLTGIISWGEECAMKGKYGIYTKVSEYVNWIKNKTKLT .
232%

If you can, please state the reported % of WT kcat/KM value of FIXa-Y155F/R338E/T343R/R403E/E410S (protein) chain 1: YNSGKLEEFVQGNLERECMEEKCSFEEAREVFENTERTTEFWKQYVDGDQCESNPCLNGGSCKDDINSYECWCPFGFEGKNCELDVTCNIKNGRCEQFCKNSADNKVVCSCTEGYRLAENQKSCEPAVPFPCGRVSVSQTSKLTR chain 2: VVGGEDAKPGQFPWQVVLNGKVDAFCGGSIVNEKWIVTAAHCVETGVKITVVAGEHNIEETEHTEQKRNVIRIIPHHNYNAAINKYNHDIALLELDEPLVLNSYVTPICIADKEYTNIFLKFGSGYVSGWGRVFHKGRSALVLQYLRVPLVDRATCLESTKFRIYNNMFCAGFHEGGRDSCQGDSGGPHVTEVEGTSFLTGIISWGEECAMKGKYGIYTKVSEYVNWIKSKTKLT .
629%
